Source: PubChem BioAssay

TEST_DESCRIPTION: RAM signaling pathway blockade in yeast – S. cerevisiae, Pdr1DBD-CYC8 efflux-inhibited sensitized strain, primary screen (AID 1298);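 also: 0% = DMSO untreated cells without growth and 100% = 10 µM 1-NA-PP1 full growth; higher means more yeast growth rescued from 5-FOA killing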
RECORDED_CONDITIONS: S. cerevisiae cbk1-as DSE1-URA3 strain, 5-FOA growth OD615, 2 d; at 50 µM; active compounds read high
Give RAM network inhibition for every item shown.
One number for each entry, in %.

Look over these answered cases.
COMPOUND: COc1cc2c(cc1OC)-c1nnc(-c3cccs3)n1C(C)(C)C2
MEASURED_VALUE: 0.94
--
COMPOUND: Cn1c(Cn2c(=O)sc3ccccc32)nnc1SCc1ccccc1
MEASURED_VALUE: 4.4

Record RAM network inhibition per entry; entries follow.
1. CC(=O)NC(C)C(=O)OCC(=O)Nc1ccc(Br)cc1 (configuration not stated)
2. COc1ccccc1N(CC(=O)Nc1cccnc1)S(C)(=O)=O
3. CC(=O)Nc1nnc(SCC(=O)NCCOc2ccccc2)s1
4. Cc1ccc(S(=O)(=O)N2CCOCC2)cc1C(=O)Nc1nc(-c2cccnc2)cs1
5. COc1ccc(Cl)cc1S(=O)(=O)N1CCN(c2ccc(F)cc2)CC1

1.92
3.47
4.66
3.11
1.85

Record RAM network inhibition per entry; entries follow.
1. COC(=O)c1cc(-c2ccccc2)sc1NC(=O)c1cc(C)on1
2. Cn1c(=O)[nH]c(=O)c2c1nc(N1CCCCC1)n2CCSc1ncccn1
3. CC(NC(=O)C1CC1)C(c1cccs1)N1CCN(c2ccccc2)CC1 (configuration not stated)
4. COc1ccccc1NC(=O)C1=C(C)Nc2nc(-c3cccs3)nn2C1c1cccnc1 (configuration not stated)
5. Nc1nc(SCC(=O)N2CCCc3ccccc32)n(-c2ccccc2)n1

1. 2.94
2. -0.42
3. -0.26
4. 4.86
5. 6.67

* * *

TEST_DESCRIPTION: H69AR cell proliferation blockers – human, duplicate replicates, primary screen (AID 580);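 also: 100% = mean luminescence of untreated wells and 0% = no signal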
RECORDED_CONDITIONS: H69AR lung tumor cells viability, ATP luminescence, 72 h; at 10 µM; active compounds read low
Give viability for every item shown.
Answers are plain numbers, in %.

COMPOUND: CCOc1ccc(NC2c3ccccc3C(=O)N2Cc2ccco2)cc1 (stereo unspecified)
viability / %: 96.2

COMPOUND: CCN1C(=O)c2cccc3c(NC(=O)c4ccc(S(=O)(=O)N(C)C)cc4)ccc1c23
viability / %: 65.9

COMPOUND: CC(C)(C)SCCNC(=O)COc1ccc(Cl)cc1
viability / %: 109

COMPOUND: CC(C)(C)NC(=O)Cn1c(=O)oc2ccc(Cl)cc21
viability / %: 92.9

COMPOUND: COc1cc(C(=O)Nc2cccc(-c3nncn3C)c2)cc(OC)c1OC
viability / %: 89

COMPOUND: O=C(NCCN1CCN(c2ccccc2)CC1)c1ccc(NC(=O)C2CCCO2)cc1 (stereo unspecified)
viability / %: 108

COMPOUND: COc1cccc(NC(=O)C2CCCN(S(=O)(=O)c3cccc4cccnc34)C2)c1 (stereo unspecified)
viability / %: 82.7

COMPOUND: COCCNC(=O)CN(C)S(=O)(=O)c1ccc(Br)cc1
viability / %: 104

Record viability per entry; entries follow.
1. CCN1CCN(C(=O)c2cn(CC)c3ccc(S(=O)(=O)N(C)C)cc3c2=O)CC1
2. N#C/C(C(=O)c1ccccc1)=C1/CCCN1
3. CCOC(=O)c1ccc(NS(=O)(=O)c2ccc3c(c2)oc(=O)n3C)cc1

107
97.2
113
